Let's look at some molecules and their measured logP.
metric: logP

molecule	quantitative-readout
CC(C)CCOC(=O)c1ccccc1	4.15
C[C@H]1O[C@@H](O[C@H]2[C@@H](O)C[C@H](O[C@H]3[C@@H](O)C[C@H](O[C@H]4CC[C@@]5(C)[C@H](CC[C@@H]6[C@@H]5CC[C@]5(C)[C@@H](C7=CC(=O)OC7)CC[C@]65O)C4)O[C@@H]3C)O[C@@H]2C)C[C@H](O)[C@@H]1O	1.85
CCCOc1cc(Br)c(Cc2cnc(N)nc2N)cc1OC	2.84
Cc1coc2ccc3ccc(=O)oc3c12	2.38
O=C1NC(=O)C(c2ccccc2)C(=O)N1	-0.17
CCOCc1ccccc1	2.16
COC1CC2(C)C(O)CCC2C2CCc3cc(O)ccc3C12 (stereo not given)	2.72
CNC(=O)NS(=O)(=O)c1ccc(C)cc1	0.95
CC[C@@H]1C(=O)OC[C@@H]1Cc1cncn1C	0.12
CCOC(=O)CC[C@H](NC(=O)c1ccc(N(C)Cc2cnc3nc(N)nc(N)c3n2)cc1)C(=O)OCC	0.98
